# ASSAYED SYSTEM: T1, human calcitonin receptor (human, UniProt P30988 25-474)
# T1 construct: whole, on cells; Assayed as cell membranes of BHK tk'ts 13 cells stably transfected with the human calcitonin receptor (Assay VII); also called hCTR; hCT
# T1 sequence (looked up): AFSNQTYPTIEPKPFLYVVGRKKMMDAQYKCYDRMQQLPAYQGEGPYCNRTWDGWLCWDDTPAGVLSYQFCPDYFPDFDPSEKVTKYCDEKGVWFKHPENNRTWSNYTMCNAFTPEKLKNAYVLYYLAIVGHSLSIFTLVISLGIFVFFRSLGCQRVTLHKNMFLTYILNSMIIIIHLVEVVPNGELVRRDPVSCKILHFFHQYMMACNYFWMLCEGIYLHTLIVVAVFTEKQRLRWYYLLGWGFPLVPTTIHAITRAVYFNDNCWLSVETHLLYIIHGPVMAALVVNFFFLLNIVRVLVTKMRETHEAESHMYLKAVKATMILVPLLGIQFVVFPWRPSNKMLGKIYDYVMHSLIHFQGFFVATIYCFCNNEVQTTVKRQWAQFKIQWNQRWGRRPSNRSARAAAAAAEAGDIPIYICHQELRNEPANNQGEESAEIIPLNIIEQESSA
# ASSAY NAME: SPA competition vs 125I-calcitonin, membranes of BHK cells with human calcitonin receptor (Assay VII)
Numbered stars: 1 amine (or outer) side, 2 acyl side, 3 side chain; on linkers, the order of the positions; unused ones are H or OH. Bridge positions count the residues as written; N and C are the ends. Side chains are listed from the residue outwards. Ends that are not written are not given here. * marks the point of attachment. C20 diacid = O=C(O)CCCCCCCCCCCCCCCCCCC(=O)*; γGlu = O=C(O)[C@H](CCC(=O)[*:2])N[*:1]; AEEA = NCCOCCOCC(=O)O
READOUT LABEL: IC50 (nM)
One number for each entry, in nM.

The value of IC50 measured for the binder K([AEEA-γGlu-C20 diacid])CNTATCATQRLANFLRHSSPNFGAIPPSTPVGSNTY-NH2 (disulfide 2-7, also called compound 53) turned out to be 5.38
